Origin of the recorded values: patent US9862702B2

# Tested on: Sweetpotato Whitefly Crawler (Bemisia tabaci) (BEMITA)
# test_details: Bioassays on Sweetpotato Whitefly Crawler, foliar spray on infested cotton plants
# Type: in vivo
# condition_summary: 200 ppm test solution sprayed on cotton leaves until runoff, live nymphs counted after 8-9 days at 82° F., 50% RH, read-out: BEMITA rating (% Control of Mortality, Abbott-corrected)
# Source text: Example B Bioassays on Sweetpotato Whitefly Crawler (Bemisia tabaci) (BEMITA.) The sweetpotato whitefly, Bemisia tabaci (Gennadius), has been recorded in the United States since the late 1800s. In 1986 in Florida, Bemisia tabaci became an extreme economic pest. Whiteflies usually feed on the lower surface of their host plant leaves. From the egg hatches a minute crawler stage that moves about the leaf until it inserts its microscopic, threadlike mouthparts to feed by sucking sap from the phloem. […]
Counter-ions that a name gives are not always drawn.
Would you mind telling me the reported mortality at 200 ppm of each entry?

Here are 4 compounds together with their reported answers.
>>> result("N#CC1CC(Cl)=NN1c1cccnc1 (stereo not shown)")
"< 0%"
>>> result("CCOC(=O)C1CC(Cl)=NN1c1cccnc1 (stereo not shown)")
"0 to 80%"
>>> result("O=C(O)c1cc(Cl)nn1-c1cccnc1 [Compound 6e, Hydrochloride]")
"< 0%"
>>> result("O=C(O)/C=N/Nc1cccnc1 [Compound 6a, Hydrochloride]")
"0 to 80%"

Quick one: give me mortality at 200 ppm for each item below, same order please.
1. COC(=O)C1CC(Cl)=NN1c1cccnc1 (stereo not shown)
2. COC(=O)c1cc(Cl)nn1-c1cccnc1
3. CCOC(=O)C1CC(=O)NN1c1cccnc1 (stereo not shown)

a:
["80 to 100%", "< 0%", "0 to 80%"]
